# assayed-system: PAR4 (Homo sapiens (Human), UniProt Q96RI0)
# Sequence (Q96RI0 18-385): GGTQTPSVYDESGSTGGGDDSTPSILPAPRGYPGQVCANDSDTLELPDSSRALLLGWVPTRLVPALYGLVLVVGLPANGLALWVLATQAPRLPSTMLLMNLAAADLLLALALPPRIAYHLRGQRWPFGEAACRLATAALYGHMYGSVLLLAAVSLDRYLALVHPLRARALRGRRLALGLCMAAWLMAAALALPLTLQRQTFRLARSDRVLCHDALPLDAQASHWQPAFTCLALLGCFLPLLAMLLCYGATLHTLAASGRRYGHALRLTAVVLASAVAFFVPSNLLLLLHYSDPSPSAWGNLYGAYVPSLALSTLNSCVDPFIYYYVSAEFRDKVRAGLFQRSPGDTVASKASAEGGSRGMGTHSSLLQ
# test-name: FLIPR assay in PAR4-expressing HEK293 cells (PAR4 antagonist activity, calcium mobilization)
# Type: cell-based
# experimental-context: H-Ala-Phe(4-F)-Pro-Gly-Trp-Leu-Val-Lys-Asn-Gly-NH2-induced calcium mobilization
measured-parameter: EC50 (nM)

Past entries and their recorded results:
>>> val("COc1cc(OCc2nc(C3(O)CCOCC3)sc2C)c2cc(-c3cn4nc(OC)sc4n3)oc2c1 [Example 124]")
0.29
>>> val("COc1cc(OCc2csc(Nc3ccc(F)c(C)n3)n2)c2cc(-c3cn4nc(C)ccc4n3)oc2c1 [Example 282]")
3480
>>> val("COc1cc(OCc2csc(N3CCN(c4ccccc4)CC3)n2)c2cc(-c3cn4nc(C)ccc4n3)oc2c1 [Example 262]")
0.75
>>> val("COc1cc(OCc2csc(-c3ccncc3)n2)c2cc(-c3cn4nc(C)ccc4n3)oc2c1 [Example 211]")
0.72
>>> val("COc1cc(OCc2csc(Nc3cccc(C)c3)n2)c2cc(-c3cn4nc(C)ccc4n3)oc2c1 [Example 267]")
4.2
>>> val("COc1cc(OCc2csc(N3CC[C@@H](O)C3)n2)c2cc(-c3cn4nc(C)ccc4n3)oc2c1 [Example 253]")
9.7
>>> val("COc1cc(OC(C)c2csc(-c3ccccc3)n2)c2cc(-c3cn4nc(OC)sc4n3)oc2c1 (stereo not shown) [Example 83]")
1.1
>>> val("COc1cc(OCc2csc(N3CCSCC3)n2)c2cc(-c3cn4nc(C)ccc4n3)oc2c1 [Example 217]")
0.61

(a) COc1cc(OCc2csc(N3C[C@@H](C)O[C@@H](C)C3)n2)c2cc(-c3cn4nc(OC)sc4n3)oc2c1 [Example 51]
(b) COc1cc(OCc2nc(-c3ccc(C(N)=O)cc3)sc2C)c2cc(-c3cn4nc(OC)sc4n3)oc2c1 [Example 70]
Query :: Between the two listed entries a and b , which has its EC50 at the higher number? State your choice using its label.
Result :: b

(A) COc1cc(OCc2csc(Cl)n2)c2cc(-c3cn4nc(C)ccc4n3)oc2c1 [Example 206]
(B) COc1cc(OCc2csc(C3(c4ccccc4F)CCOCC3)n2)c2cc(-c3cn4nc(OC)sc4n3)oc2c1 [Example 156]
(C) COc1cc(OCc2csc(C3(O)CCN(C(=O)OC(C)(C)C)CC3)n2)c2cc(-c3cn4nc(OC)sc4n3)oc2c1 [Example 129]
(D) COc1cc(OCc2csc(-c3ccccc3Cl)n2)c2cc(-c3cn4nc(OC)sc4n3)oc2c1 [Example 16]
Query :: Order the 4 compounds from highest to lowest EC50. Rank the items, then write their labels in that order.
Result :: A, D, C, B

(a) COc1cc(OCc2csc(-c3cccc(F)c3)n2)c2cc(-c3cn4nc(OC)sc4n3)oc2c1 [Example 25]
(b) COc1cc(OCc2csc(C3CCCCC3)n2)c2cc(-c3cn4nc(OC)sc4n3)oc2c1 [Example 20]
Query :: Of the pair a and b , name the member with the lesser recorded EC50. State your choice using its label.
Result :: a

###

# assayed-system: PAR4 (Homo sapiens (Human))
# test-name: FLIPR assay in PAR4-expressing HEK293 cells (PAR4 antagonist activity, calcium mobilization)
# Format: cell-based
# experimental-context: H-Ala-Phe(4-F)-Pro-Gly-Trp-Leu-Val-Lys-Asn-Gly-NH2-induced calcium mobilization
pEC50: −log10 of the molar value.
measured-parameter: pEC50

(A) COc1cc(OCc2csc(C3CCN(C(=O)OC(C)(C)C)CC3)n2)c2cc(-c3cn4nc(OC)sc4n3)oc2c1 [Example 109]
(B) COc1cc(OCc2csc(C3(NC(=O)CN(C)C)CCOCC3)n2)c2cc(-c3cn4nc(OC)sc4n3)oc2c1 [Example 174]
(C) COc1cc(OCc2csc(C3(c4ccc(Br)cc4)CCOCC3)n2)c2cc(-c3cn4nc(OC)sc4n3)oc2c1 [Example 153]
Query :: Please list these in order of increasing pEC50. Thank you! Rank the items, then write their labels in that order.
Result :: B, C, A

###

Recorded measurements of IC50, one per entry
# assayed-system: PAR4 (Homo sapiens (Human))
# test-name: Gamma thrombin induced platelet aggregation assay (PRP assay)
# experimental-context: human platelet rich plasma, 96-well microplate
A number alone suffices; assume µM.

Query :: Please report the recorded IC50 for CCC(F)(c1nc(COc2cc(OC)cc3oc(-c4cn5nc(OC)sc5n4)cc23)cs1)C(F)(F)F (stereo not shown) .
Result :: 0.026

Query :: Please report the recorded IC50 for `COc1cc(OCc2csc(N3CCC4(CC3)OCCO4)n2)c2cc(-c3cn4nc(OC)sc4n3)oc2c1` .
Result :: 0.024

Query :: Please report the recorded IC50 for `COc1cc(OCc2csc(C3(O)CCC4(CC3)OCCO4)n2)c2cc(-c3cn4nc(OC)sc4n3)oc2c1` .
Result :: 0.0019

###

# assayed-system: PAR4 (Homo sapiens (Human), UniProt Q96RI0)
# test-name: FLIPR assay in PAR4-expressing HEK293 cells (PAR4 antagonist activity, calcium mobilization)
# Type: cell-based
# experimental-context: H-Ala-Phe(4-F)-Pro-Gly-Trp-Leu-Val-Lys-Asn-Gly-NH2-induced calcium mobilization
measured-parameter: EC50 (nM)

>>> val("COc1cc(OCc2csc(N3CCC4(CC3)OCCO4)n2)c2cc(-c3cn4nc(OC)sc4n3)oc2c1")
0.31
>>> val("COc1cc(OCc2csc(N3CCC(N4CCOCC4)CC3)n2)c2cc(-c3cn4nc(C)ccc4n3)oc2c1")
53
>>> val("COc1ccc(-c2nc(COc3cc(OC)cc4oc(-c5cn6nc(C)ccc6n5)cc34)cs2)cc1")
1.2
>>> val("COc1cccc(C2(c3nc(COc4cc(OC)cc5oc(-c6cn7nc(OC)sc7n6)cc45)cs3)CCOCC2)c1")
0.95

###

# assayed-system: UniProtKB Q96RI0
# test-name: FLIPR assay in PAR4-expressing HEK293 cells (PAR4 antagonist activity, calcium mobilization)
# Format: cell-based
# experimental-context: H-Ala-Phe(4-F)-[…]NH2-induced calcium mobilization
measured-parameter: pEC50
In plain terms, pEC50 is the concentration in mol/L turned into minus its base-10 logarithm.

Query :: What reported pEC50 corresponds to COc1cc(OCc2csc(C3=CCC4(CC3)OCCO4)n2)c2cc(-c3cn4nc(OC)sc4n3)oc2c1 [Example 127] on UniProtKB Q96RI0?
Result :: 8.80

###

Recorded measurements of IC50, one per entry
# assayed-system: PAR4 (Homo sapiens (Human))
# test-name: Gamma thrombin induced platelet aggregation assay (PRP assay)
# Assay type: cell-based
# experimental-context: human platelet rich plasma, 96-well microplate
A number alone suffices; assume nM.

>>> val("COc1cc(OCc2csc(-c3ccnc(F)c3)n2)c2cc(-c3cn4nc(OC)sc4n3)oc2c1")
2.2

Query :: What reported IC50 corresponds to `COCCN(C)C(=O)c1ccc(-c2nc(COc3cc(OC)cc4oc(-c5cn6nc(OC)sc6n5)cc34)cs2)cc1` on PAR4 (Homo sapiens (Human))?
Result :: 2.1

Query :: What reported IC50 corresponds to `COc1cc(OCc2csc(N3CCC[C@H]3C)n2)c2cc(-c3cn4nc(C)ccc4n3)oc2c1` on PAR4 (Homo sapiens (Human))?
Result :: 2630

Query :: What reported IC50 corresponds to `COc1cc(OCc2csc(C3(c4ccc(C(=O)N(C)C)cc4)CCOCC3)n2)c2cc(-c3cn4nc(OC)sc4n3)oc2c1` on PAR4 (Homo sapiens (Human))?
Result :: 27

Query :: What reported IC50 corresponds to `COc1cc(OCc2csc(-c3ccc(Cl)cc3)n2)c2cc(-c3cn4nc(C)ccc4n3)oc2c1` on PAR4 (Homo sapiens (Human))?
Result :: 23

###

# assayed-system: UniProtKB Q96RI0
# test-name: FLIPR assay in PAR4-expressing HEK293 cells (PAR4 antagonist activity, calcium mobilization)
# Type: cell-based
# experimental-context: H-Ala-Phe(4-F)-Pro-Gly-Trp-Leu-Val-Lys-Asn-Gly-NH2-induced calcium mobilization
measured-parameter: EC50 (nM)

Past entries and their recorded results:
>>> val("COc1cc(OCc2csc(N3CCC(F)CC3)n2)c2cc(-c3cn4nc(C)ccc4n3)oc2c1 [Example 272]")
2
>>> val("COc1cc(OCc2csc(C3(F)CCOCC3)n2)c2cc(-c3cn4nc(OC)sc4n3)oc2c1 [Example 119]")
0.72
>>> val("COc1cc(OCc2csc(C3(O)CCC(C(=O)O)CC3)n2)c2cc(-c3cn4nc(OC)sc4n3)oc2c1 (stereo not shown) [Example 150]")
0.92
>>> val("COc1cc(OCc2csc(NCCCN3CCCC3=O)n2)c2cc(-c3cn4nc(C)ccc4n3)oc2c1 [Example 254]")
19
>>> val("COc1cc(OCc2csc(N3CCN(c4cccc(Cl)c4)CC3)n2)c2cc(-c3cn4nc(C)ccc4n3)oc2c1 [Example 268]")
1.7

(P) COc1cc(OCc2csc(-c3ccc(C(=O)NC4COC4)cc3)n2)c2cc(-c3cn4nc(OC)sc4n3)oc2c1 [Example 295]
(Q) COc1cc(OCc2csc(C3(c4cccnc4)CCC3)n2)c2cc(-c3cn4nc(OC)sc4n3)oc2c1 [Example 177]
Query :: Between the two listed entries P and Q , which has its EC50 at the higher number? State your choice using its label.
Result :: P
